# Test system: Cellulolytic Enzyme Composition #1
# assay_remarks: mini-plate-scale AVICEL hydrolysis by Cellulolytic Enzyme Composition #1
# Type: biochemical, Trichoderma reesei
# assay_conditions: 10 mM; 25 g AVICEL and 0.25 g enzyme per liter, pH 5, 50° C.; after 4 days
metric: Effect on enzymatic cellulolysis: loss in extended hydrolysis extent

Recorded Effect on enzymatic cellulolysis: loss in extended hydrolysis extent, per entry:
[[record]]
molecule = "O=S(=O)([O-])[O-].[Mn+2] [Mn(II), MnSO4]"
result = "no change"

[[record]]
molecule = "O=S(=O)([O-])[O-].[Cu+2] [Cu(II), CuSO4]"
result = "~80%"

[[record]]
molecule = "[Cl][Ni][Cl] [Ni(II), NiCl2]"
result = "~10%"

[[record]]
molecule = "O=S(=O)([O-])[O-].[Co+2] [Co(II), CoSO4]"
result = "no change"

[[record]]
molecule = "O=C([O-])CN(CCN(CC(=O)[O-])CC(=O)[O-])CC(=O)[O-].[Fe+3].[Na+] [Fe(III)NaEDTA, FeNa(EDTA)]"
result = "~20%"


Incoming: Return reported Effect on enzymatic cellulolysis: loss in extended hydrolysis extent. Input molecule: O=C([O-])CC(O)(CC(=O)[O-])C(=O)[O-].[Fe+3] [Fe(III)-citrate, Fe-citrate]
Outgoing: no change

Incoming: Return reported Effect on enzymatic cellulolysis: loss in extended hydrolysis extent. Input molecule: [Cl][Ru]([Cl])[Cl] [Ru(III), RuCl3]
Outgoing: ~80%

----------
Listing: Effect on enzymatic cellulolysis: loss in initial rate of selected molecules
# Tested on: Cellulolytic Enzyme Composition #1
# assay_remarks: mini-plate-scale AVICEL hydrolysis by Cellulolytic Enzyme Composition #1
# Format: biochemical, Trichoderma reesei
# assay_conditions: 10 mM; 25 g AVICEL and 0.25 g enzyme per liter, pH 5, 50° C.

Recorded Effect on enzymatic cellulolysis: loss in initial rate, per entry:
[[record]]
molecule = "[Cl][Ni][Cl] [Ni(II), NiCl2]"
result = "~20%"

[[record]]
molecule = "O=S(=O)([O-])[O-].[Cu+2] [Cu(II), CuSO4]"
result = "~90%"

[[record]]
molecule = "O=S(=O)([O-])[O-].[Co+2] [Co(II), CoSO4]"
result = "~10%"

[[record]]
molecule = "O=S(=O)([O-])[O-].[Mn+2] [Mn(II), MnSO4]"
result = "~10%"

[[record]]
molecule = "[Cl][Ru]([Cl])[Cl] [Ru(III), RuCl3]"
result = "~90%"


API: the following record is the query input.
Incoming: Return reported Effect on enzymatic cellulolysis: loss in initial rate. Input molecule: O=C([O-])CN(CCN(CC(=O)[O-])CC(=O)[O-])CC(=O)[O-].[Fe+3].[Na+] [Fe(III)NaEDTA, FeNa(EDTA)]
Outgoing: ~10%

----------
# target_desc: Cellulolytic Enzyme Composition #1
# assay_remarks: mini-plate-scale AVICEL hydrolysis by Cellulolytic Enzyme Composition #1
# Format: biochemical, Trichoderma reesei
# assay_conditions: Avicel; Enzymes: Cellulolytic Enzyme Composition #1; read-out: I50 (mean ± SD)
# Experimental: Various (biologically common) divalent metal cations with variable ionic radii were tested in 2.8 ml Deep Well Microplates (VWR International, West Chester, Pa., USA) (“mini-plate-scale”) containing 1 ml suspensions of 25 g of AVICEL® per liter in 50 mM sodium acetate pH 5 at 50° C. Cellulolytic Enzyme Composition #1 was added at 0.25 g per liter for each hydrolysis. […] Soluble reducing sugars were measured by HPLC as described in Example 30. […]
metric: IC50
Give the number first and the unit second.

Incoming: Return reported IC50. Input compound: [Fe+2] [Fe(II)]
Outgoing: 2 mM

----------
# target_desc: Trichoderma reesei Cel7B endoglucanase I (Trichoderma reesei)
# Construct: made in house; host or cells: Aspergillus oryzae JaL250
# Sequence (P07981 23-459): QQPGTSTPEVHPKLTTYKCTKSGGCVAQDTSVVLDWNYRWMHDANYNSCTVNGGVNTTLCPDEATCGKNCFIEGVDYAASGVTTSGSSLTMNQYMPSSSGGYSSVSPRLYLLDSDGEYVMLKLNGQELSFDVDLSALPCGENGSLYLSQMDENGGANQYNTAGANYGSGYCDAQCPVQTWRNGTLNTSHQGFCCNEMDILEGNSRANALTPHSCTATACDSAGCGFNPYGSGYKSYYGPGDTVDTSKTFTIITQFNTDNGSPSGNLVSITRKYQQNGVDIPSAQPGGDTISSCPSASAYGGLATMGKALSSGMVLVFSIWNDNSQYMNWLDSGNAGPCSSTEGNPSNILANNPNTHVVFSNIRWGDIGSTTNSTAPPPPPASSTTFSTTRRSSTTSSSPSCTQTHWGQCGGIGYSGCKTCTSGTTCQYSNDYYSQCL
# assay_remarks: PASC hydrolysis by Cel7B endoglucanase I
# Type: biochemical
# assay_conditions: PASC; CEL7B EGI, 40 mg enzyme per liter; read-out: I50 (mean ± SD)
metric: pIC50
Scale note: pIC50 = -log10(concentration in M).

Incoming: Return reported pIC50. Input molecule: [Fe+2]
Outgoing: 2.74

----------
# target_desc: UniProtKB P62694
# Sequence (P62694 18-513): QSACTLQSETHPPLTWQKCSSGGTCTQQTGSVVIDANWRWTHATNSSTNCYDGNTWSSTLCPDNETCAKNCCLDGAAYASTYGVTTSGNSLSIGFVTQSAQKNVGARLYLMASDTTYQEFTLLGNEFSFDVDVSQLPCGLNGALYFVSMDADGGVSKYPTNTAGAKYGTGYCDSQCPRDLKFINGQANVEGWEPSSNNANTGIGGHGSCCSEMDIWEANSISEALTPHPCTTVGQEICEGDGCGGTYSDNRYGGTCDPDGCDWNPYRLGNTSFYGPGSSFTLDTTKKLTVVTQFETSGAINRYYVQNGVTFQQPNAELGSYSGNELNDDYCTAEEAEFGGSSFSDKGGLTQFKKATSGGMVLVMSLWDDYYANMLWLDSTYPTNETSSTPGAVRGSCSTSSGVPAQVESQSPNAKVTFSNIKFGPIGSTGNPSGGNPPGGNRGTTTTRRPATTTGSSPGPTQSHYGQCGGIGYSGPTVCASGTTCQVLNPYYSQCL
metric: pIC50
Scale note: pIC50 = -log10(concentration in M).

Incoming: Return reported pIC50. Input compound: [Fe+2]
Outgoing: 2.15

----------
Listing: pIC50 of selected compounds
# target_desc: Cellulolytic Enzyme Composition #1
# assay_remarks: mini-plate-scale AVICEL hydrolysis by Cellulolytic Enzyme Composition #1
# Format: biochemical, Trichoderma reesei
# assay_conditions: AVICEL hydrolysis; 0.2 to 2 mM inhibitor; read-out: I50 estimated based on limited data
pIC50: −log10 of the molar value.

[[record]]
compound = "[Cl][Cr]([Cl])[Cl] [Cr(III), CrCl3]"
result = "< 2.00"

[[record]]
compound = "O=C([O-])CN(CCN(CC(=O)[O-])CC(=O)[O-])CC(=O)[O-].[Fe+2].[Na+].[Na+] [Fe(II)Na2EDTA, FeNa2EDTA]"
result = "> 2.00"


API: the following record is the query input.
Incoming: Return reported pIC50. Input compound: O=C([O-])CN(CCN(CC(=O)[O-])CC(=O)[O-])CC(=O)[O-].[Fe+3].[Na+] [Fe(III)NaEDTA, FeNa(EDTA)]
Outgoing: ~2.00

----------
# target_desc: Cellulolytic Enzyme Composition #1
# assay_remarks: mini-plate-scale AVICEL hydrolysis by Cellulolytic Enzyme Composition #1
# Format: biochemical, Trichoderma reesei
# assay_conditions: AVICEL hydrolysis; 0.2 to 2 mM inhibitor; read-out: I50
Listing: IC50 of selected molecules
Field format: number, assumed µM, no unit text.

[[record]]
smiles = "[Cl][Ru]([Cl])[Cl]"
metric = "IC50"
quantitative_result = 150

[[record]]
smiles = "O=S(=O)([O-])[O-].[Cu+2]"
metric = "IC50"
quantitative_result = 200


API: the following record is the query input.
Incoming: Return reported IC50. Input molecule: [Cl][Fe]([Cl])[Cl]
Outgoing: 500

Where these numbers come from: patent US20090130707A1
